- Tested on: RAW-Dual (murine macrophage reporter line)
- MEASUREMENT DESCRIPTION: NF-kB reporter (SEAP) activity fold change vs agonist alone; higher = enhanced NF-kB activity
- COND: modulator concentration 10 µM; agonist: CpG ODN 1826 0.5 ug/mL

MOLECULE	TARGET DESC	NF-kB reporter
Cc1ccc(C(=O)NC(Oc2ccc3ccccc3c2)C(Br)(Br)Br)cc1 (stereo unspecified)	RAW-Dual (murine macrophage reporter line)	0.799
O=C(NN=Cc1ccc([N+](=O)[O-])s1)c1ccc(Br)cc1	RAW-Dual (murine macrophage reporter line)	0.968
Oc1ccc(OCc2ccccc2)cc1	RAW-Dual (murine macrophage reporter line)	1.78
O=C(O)C=Cc1ccc(S(=O)(=O)NCc2cccnc2)cc1	RAW-Dual (murine macrophage reporter line)	0.751
CCN(CC)CCOC(=O)C(Cc1cccc2ccccc12)CC1CCCO1.O=C(O)C(=O)O (stereo unspecified)	RAW-Dual (murine macrophage reporter line)	0.672
Cc1ccc(CNC(=O)C(=O)NC2CCCCC2)cc1	RAW-Dual (murine macrophage reporter line)	1
O=C(NCCN1CCN(c2ccc(F)cc2)CC1)c1ccno1	RAW-Dual (murine macrophage reporter line)	1.04
C#Cc1cccc(Nc2ncnc3cc(OC)c(OCCCCCCC(=O)NO)cc23)c1	RAW-Dual (murine macrophage reporter line)	1.12
CCCC(CCC)C(=O)O	RAW-Dual (murine macrophage reporter line)	1.05
NC(=O)N1CCC(CC(=O)N2CCC([C@H]3c4ncc(Br)cc4CCc4cc(Cl)cc(Br)c43)CC2)CC1	RAW-Dual (murine macrophage reporter line)	0.342
CCOC(=O)[C@H](CCc1ccccc1)N[C@H]1CCc2ccccc2N(CC(=O)O)C1=O.Cl	RAW-Dual (murine macrophage reporter line)	1.07

* * *

- System: RAW-Dual (murine macrophage reporter line)
- MEASUREMENT DESCRIPTION: IRF reporter (Lucia luciferase) activity fold change vs agonist alone; higher = enhanced IRF activity
- COND: modulator concentration 10 µM; agonist: LPS 0.1 ug/mL
# reported IRF reporter; entries follow

MOLECULE	IRF reporter
COc1ccc(N(CC(=O)Nc2ccc3ccccc3c2)S(C)(=O)=O)cc1OC	1.43
COC(=O)C1=CN(CC2CCCO2)C=C(C(=O)OC)C1c1ccc(OC)cc1 (stereo unspecified)	0.993
O=C(CCn1cnc2ccccc2c1=O)NCC1CCCN1c1ccccc1 (stereo unspecified)	1.3
COc1ccc(CNCc2cccc3ccccc23)cc1	0.945
Cc1cc(CNC(=O)CCc2ccc(C(F)(F)F)cc2)c(C)o1	1.14
COc1ccc2c3c1O[C@H]1C[C@@H](O)C=C[C@@]31CCN(C)C2 [Prestw-588]	0.987
Cc1ccc2sc(NC(=O)c3cccc(N4C(=O)CCC4=O)c3)nc2c1C	1.39
CC(C)OCc1ccc(C(=O)Nc2nnc(C(C)C)s2)o1	1.11
CC(=O)N1CCC(Cn2ccc3cccnc32)CC1	0.957
O=C(NCC(O)Cn1ccccc1=O)c1ccc(Cl)s1 (stereo unspecified)	1.41
CCOC(=O)Cc1nnnn1C	1.14

* * *

- Test system: RAW-Dual (murine macrophage reporter line)
- MEASUREMENT DESCRIPTION: IRF reporter (Lucia luciferase) activity fold change vs agonist alone; higher = enhanced IRF activity
- COND: modulator concentration 10 µM; agonist: MPLA […]
# reported IRF reporter; entries follow
MEASURE: IRF reporter

COMPOUND	MEASURE	REPORTED VALUE
O=C(Nc1ccccc1)NC1CCS(=O)(=O)C1 (stereo not given)	IRF reporter	0.88
CCOC(=O)c1ccc(NC(=O)c2sc(NC(=O)c3cc(OC)c(OC)c(OC)c3)c(C(=O)OCC)c2C)cc1	IRF reporter	1.14
Cc1c(C)c2c(c(C)c1O)CCC(C)(C(=O)O)O2 (stereo not given)	IRF reporter	1.03
Cc1ccc(COc2ccc3c(C)c(C)c(=O)oc3c2C)cc1	IRF reporter	1.53
Cc1cc(OC2CCN(C(=O)c3csc(C)n3)CC2)nc(C)n1	IRF reporter	1.15

* * *

- System: RAW-Dual (murine macrophage reporter line)
- MEASUREMENT DESCRIPTION: IRF reporter (Lucia luciferase) activity fold change vs agonist alone; higher = enhanced IRF activity
- COND: modulator concentration 10 µM; agonist: 3'3'-cGAMP 10 ug/mL
Category scheme (IRF reporter): low interval = under 0.9, middle interval = from 0.9 up to 1, high interval = 1 and over

MOLECULE	ANSWER LABEL
CC[C@H](C)C(=O)O[C@H]1C[C@@H](C)C=C2C=C[C@H](C)[C@H](CC[C@@H]3C[C@@H](O)CC(=O)O3)[C@H]21	low interval
O=C1[C@H](CC[C@H](O)c2ccc(F)cc2)[C@@H](c2ccc(O)cc2)N1c1ccc(F)cc1	middle interval
CS(=O)(=O)N1CCCCC1C(=O)N(CC1CCCO1)c1nc2c(F)cccc2s1 (centres undefined)	high interval
Cc1cnc2c(c1N1CCC(Cc3ccccc3)CC1)c(=O)n(C)c(=O)n2C	high interval
CCOc1ccccc1OCCCCOc1ccc(Cl)c(C)c1	middle interval
CCOc1nc2cccc(C(=O)OC(C)OC(=O)OC3CCCCC3)c2n1Cc1ccc(-c2ccccc2-c2nnn[nH]2)cc1 (centres undefined)	high interval
CCN(CC)c1nc(-c2ccccc2Cl)c2cc(Br)ccc2n1	low interval
Cl.O=C1CN2Cc3c(ccc(Cl)c3Cl)NC2=N1	middle interval

* * *

# reported NF-kB reporter; entries follow
- Test system: RAW-Dual (murine macrophage reporter line)
- MEASUREMENT DESCRIPTION: NF-kB reporter (SEAP) activity fold change vs agonist alone; higher = enhanced NF-kB activity
- COND: modulator concentration 10 µM; agonist: CpG ODN 1826 0.5 ug/mL
MEASURE: NF-kB reporter

COMPOUND	MEASURE	REPORTED VALUE
CCC1OC(=O)C(C)C(OC2CC(C)(OC)C(O)C(C)O2)C(C)C(OC2OC(C)CC(N(C)C)C2O)C(C)(O)CC(C)CN(C)C(C)C(O)C1(C)O (stereo not given)	NF-kB reporter	0.593
NC1CONC1=O (stereo not given)	NF-kB reporter	1.25
COc1ccc(C2NN(Cc3ccccc3)C3C(=O)N(C)C(=O)C23)cc1 (stereo not given)	NF-kB reporter	0.902
O=C(NCCC(CCO)c1ccccc1)Nc1c(F)cccc1F (stereo not given)	NF-kB reporter	0.929
CN(C)c1ccc(C2N(C)c3ccccc3N2C)cc1	NF-kB reporter	1.2
COc1cc(Nc2ncc3c(n2)-c2ccc(Cl)cc2C(c2c(F)cccc2OC)=NC3)ccc1C(=O)O	NF-kB reporter	0.416
CC1(C)Cc2ccccc2C(C[N+](=O)[O-])=N1	NF-kB reporter	0.899
Cc1cc(C)c(NC(=O)COc2ccc(C)cc2C(C)(C)C)c(C)c1	NF-kB reporter	0.975
CC1=NN(c2ccc(S(N)(=O)=O)cc2)C(=O)C1=Cc1ccc(C)s1	NF-kB reporter	1.09
C=C1c2cccc(O)c2C(=O)C2=C(O)[C@]3(O)C(=O)C(C(N)=O)=C(O)[C@@H](N(C)C)[C@@H]3[C@@H](O)[C@H]12.Cl	NF-kB reporter	1.16

* * *

# reported IRF reporter; entries follow
- Tested on: RAW-Dual (murine macrophage reporter line)
- MEASUREMENT DESCRIPTION: IRF reporter (Lucia luciferase) activity fold change vs agonist alone; higher = enhanced IRF activity
- COND: modulator concentration 10 µM; agonist: LPS 0.1 ug/mL
MEASURE: IRF reporter

MOLECULE	MEASURE	REPORTED VALUE
CCCC(=O)Nc1ccc(N2CCOCC2)c(Cl)c1	IRF reporter	1.28
CC(=O)OC1=C(O)C=CC2C(C)=CC(=O)OC12 (stereo not given)	IRF reporter	1.3
Cc1ccc(S(=O)(=O)N=C(Nc2ccc([N+](=O)[O-])cc2)c2ccccc2)cc1	IRF reporter	1.39
CN(Cc1cnc2nc(N)nc(N)c2n1)c1ccc(C(=O)NC(CCC(=O)O)C(=O)O)cc1 (stereo not given)	IRF reporter	1.16
Cn1cnc([N+](=O)[O-])c1Sc1ncnc2nc[nH]c12	IRF reporter	1.2

* * *

# reported NF-kB reporter; entries follow
- Test system: RAW-Dual (murine macrophage reporter line)
- MEASUREMENT DESCRIPTION: NF-kB reporter (SEAP) activity fold change vs agonist alone; higher = enhanced NF-kB activity
- COND: modulator concentration 10 µM; agonist: CpG ODN 1826 0.5 ug/mL
MEASURE: NF-kB reporter

MOLECULE	REPORTED VALUE
COc1ccc(-n2ncc3c(Nc4cc(OC)c(OC)c(OC)c4)ncnc32)cc1	1.13
CSc1ccccc1NC(=O)C1CCCN(c2ccc(-n3cncn3)nn2)C1 (stereo unspecified)	0.991
CC(=O)N[C@H]1[C@H]([C@H](O)[C@H](O)CO)OC(C(=O)O)=C[C@@H]1NC(=N)N	1.12
CC1=C(C)CC2C(=O)N(c3ccccc3C)C(=O)C2C1 (stereo unspecified)	0.797
COc1ccc(OC)c(S(=O)(=O)N2CCC(Oc3nc4c(C)cccc4s3)CC2)c1	0.687
Cl.N=C(N)NC(=O)c1nc(Cl)c(N)nc1N	1.2
